# Target system: human GLP-1 receptor (human, UniProt P43220 24-463)
# Method summary: cell-based or functional assay
*1 amine or outer side, *2 acyl side, *3 side chain or, on linkers, in order; H or OH if unused. Where no end group is shown, it is not given here. Side-chain parts run from the residue outwards. [ ]: non-standard residue; d: D form. The star is where a group is joined. γGlu = O=C(O)[C@H](CCC(=O)[*:2])N[*:1]; Palmitoyl = CCCCCCCCCCCCCCCC(=O)*; Cysteamide = C(CS[*:3])N[*:1]; Propionyl = CCC(=O)*
Measured metric: EC50 hGLP-1R (cAMP formation) (pM)
Only the number, expressed in pM, is required.

Field: example entries. Status: answers known.
Binder | EC50 hGLP-1R (cAMP formation) [pM]
GH[dS]QGTFTSDLSKQMESRRAQDFIEWLKSGGPSSGAPPPSK([γGlu-Palmitoyl])-NH2 [SEQ ID NO: (82)] | 2590
HSQGTFTSDLSKQMEERRAQDFIEWLKNGGPSSGAPPPS-NH2 [SEQ ID NO: (15)] | 35.2
H[dS]QGTFTSDLSKQMESRRAQDFIEWLKSGGPSSGAPPPSK([γGlu-Propionyl])-NH2 [SEQ ID NO: (106)] | 315
HGEGTFTSDLSKQMDSRRAQDFIEWLKNGGPSSGAPPPS-NH2 [SEQ ID NO: (4)] | 17.4
HSQGTFTSDLSKQMDSRRAQDFIEWLKNGGPSSGAPPPS-Cysteamide [SEQ ID NO: (8)] | 20.3
HSQGTFTSDLSKQMDSRRAQDFIEWLKNGGPSSGAPPPK(Palmitoyl)-NH2 [SEQ ID NO: (21)] | 78.2
HSQGTFTSDLSKQMDKRRAQDFIEWLKNGGPSSGAPPPS-NH2 [SEQ ID NO: (19)] | 17

EC50 hGLP-1R (cAMP formation) lookup needed for HGQGTFTSDLSKQMDSRRAQDFIEWLKNGGPSSGAPPPS-NH2 [SEQ ID NO: (11)] , thanks.
25.4
